TESTED_SYSTEM: human immunoglobulin E (hIgE) (human) (UniProt P01854)
Sequence (P01854 whole entry): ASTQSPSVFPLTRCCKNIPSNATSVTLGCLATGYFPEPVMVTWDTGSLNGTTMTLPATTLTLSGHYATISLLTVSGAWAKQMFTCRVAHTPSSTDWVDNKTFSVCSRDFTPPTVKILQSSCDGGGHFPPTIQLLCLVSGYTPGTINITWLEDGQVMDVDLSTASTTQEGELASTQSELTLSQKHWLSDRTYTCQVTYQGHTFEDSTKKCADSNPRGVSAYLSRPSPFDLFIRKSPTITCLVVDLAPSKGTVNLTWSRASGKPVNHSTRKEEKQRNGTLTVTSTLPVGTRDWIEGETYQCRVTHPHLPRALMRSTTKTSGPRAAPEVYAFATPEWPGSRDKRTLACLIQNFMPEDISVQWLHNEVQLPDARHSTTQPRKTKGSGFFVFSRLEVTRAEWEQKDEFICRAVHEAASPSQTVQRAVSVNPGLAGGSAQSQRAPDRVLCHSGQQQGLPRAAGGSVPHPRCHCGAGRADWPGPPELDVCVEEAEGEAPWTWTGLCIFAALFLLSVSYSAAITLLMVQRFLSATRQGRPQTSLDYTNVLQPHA
PROTOCOL: SPR competition, hIgE over hFcεRIα chip, pH 7.4
Measured IC50, listed per entry for reference.
Numbers only; they are read as µg/mL.

Suppose we examine the binder 13E4-hIgG1-WT (antibody, V domains shown) VH: ELQLVESGGGLVQPGGSLRLSCAASGFTFSSYVMSWVRQAPGKGLEWVSSIYHDGSHTYYADFVKGRFTISRDNAKNTLYLQMNSLKSEDTAVYYCASGTSYSGSYYYTDPFFGSWGQGTQVTVSS VL: HSAVTQPSALSVTLGQTAKITCQGGSLGSNYAYWYQQKPGQAPVLVIYDDDSRPSGIPERFSGSSSGGTATLTISGAQAEDEGDYYCQSADSNGNAVFGGGTHLTVL ; what IC50 value has been reported?
2.3

Suppose we examine the binder 18E2His2-hIgG1-ABDEG (antibody, V domains shown) VH: QLQLVESGGGLVQPGGSLRLSCAASGFTFSSYVMHWVRQAPGKGLEWVSSIYHDGSHTYYADFVKGRFTISRDNAKNTLYLQMNSLKSEDTAVYYCASGTSYSGSYYYTDPFFGSWGQGTQVTVSS VL: NFMLTQPSALSVTLGQTARITCQGDRLGSRYIHWYQQKPPQAPVLVIHDDDRRPSGIPERFSGSSSGGTATLTISGAQAEDDGDYYCQSADSSGNPVFGGGTHLTVL ; what IC50 value has been reported?
5.8

Suppose we examine the binder 13E4-hIgG1-ABDEG (antibody, V domains shown) VH: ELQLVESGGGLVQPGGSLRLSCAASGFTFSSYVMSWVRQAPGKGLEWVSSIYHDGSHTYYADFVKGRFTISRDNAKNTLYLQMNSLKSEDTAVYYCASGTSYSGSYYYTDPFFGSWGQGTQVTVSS VL: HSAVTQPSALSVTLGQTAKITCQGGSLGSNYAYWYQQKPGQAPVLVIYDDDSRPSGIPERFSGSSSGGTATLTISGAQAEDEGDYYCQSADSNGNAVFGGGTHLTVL ; what IC50 value has been reported?
3
